Test system: 966289-007-R4-J1-PDC complex spheroid viability
Assay: Anticancer human tumor 966289-007-R4-J1-PDC patient-derived pancreatic adenocarcinoma cell line growth inhibition [RAS]
Conditions: second compound 0.000949 µM; first compound 3.16 µM; stronger effect = lower value
propertyLabel: viability, T/C (%)
# unit: % | format: bare number

(Q) I would be grateful if you could share the reported viability, T/C for CCC(CC)c1cc(NC2CCC(N)C2)n2nccc2n1 (configuration not stated) + CCn1c(-c2cc(N3CCN(C)CC3)cnc2C(C)OC)c2c3cc(ccc31)-c1csc(n1)CC(NC(=O)C1CC1C)C(=O)N1CCCC(N1)C(=O)OCC(C)(C)C2 .
(A) 1.75

(Q) I would be grateful if you could share the reported viability, T/C for CCC(CC)c1cc(NC2CCC(N)C2)n2nccc2n1 (configuration not stated) + CCn1c(-c2cccnc2C(C)OC)c2c3cc(ccc31)N1CCOC(CC(NC(=O)C(C(C)C)N(C)C(=O)C3(F)CCN(C(=O)C#CC(C)(C)N(C)C)CC3)C(=O)N3CCCC(N3)C(=O)OCC(C)(C)C2)C1 .
(A) 1.1

* * *

System: 966289-007-R4-J1-PDC complex spheroid viability
Assay: Anticancer human tumor 966289-007-R4-J1-PDC cell line growth inhibition [RAS];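 note: spheroids exposed to agents for one week before readout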
Settings: curve of first compound; second compound 0.3 µM
Would you mind telling me the reported IC50 of each entry?
# unit: nM | format: bare number

(Q) I would be grateful if you could share the reported IC50 for CC1(C)CCC(Nc2ncc(C(F)(F)F)c(-c3c[nH]c4c(P(C)(C)=O)c(C#N)ccc34)n2)CN1 (stereo not drawn) + CCn1c(-c2cc(N3CCN(C)CC3)cnc2C(C)OC)c2c3cc(ccc31)-c1csc(n1)CC(NC(=O)C1CC1C)C(=O)N1CCCC(N1)C(=O)OCC(C)(C)C2 .
(A) 6.14

(Q) I would be grateful if you could share the reported IC50 for CC(C)NCC(C(=O)N1CCN(c2ncnc3c2C(C)CC3O)CC1)c1ccc(Cl)cc1 (stereo not drawn) + CCn1c(-c2cc(N3CCN(C)CC3)cnc2C(C)OC)c2c3cc(ccc31)-c1csc(n1)CC(NC(=O)C1CC1C)C(=O)N1CCCC(N1)C(=O)OCC(C)(C)C2 .
(A) 4070

(Q) I would be grateful if you could share the reported IC50 for CC(C)n1nc(-c2ccc3oc(N)nc3c2)c2c(N)ncnc21 + CCn1c(-c2cccnc2C(C)OC)c2c3cc(ccc31)N1CCOC(CC(NC(=O)C(C(C)C)N(C)C(=O)C3(F)CCN(C(=O)C#CC(C)(C)N(C)C)CC3)C(=O)N3CCCC(N3)C(=O)OCC(C)(C)C2)C1 .
(A) 24.6

(Q) I would be grateful if you could share the reported IC50 for CC(C)NCC(C(=O)N1CCN(c2ncnc3c2C(C)CC3O)CC1)c1ccc(Cl)cc1 (stereo not drawn) + CCn1c(-c2cccnc2C(C)OC)c2c3cc(ccc31)N1CCOC(CC(NC(=O)C(C(C)C)N(C)C(=O)C3(F)CCN(C(=O)C#CC(C)(C)N(C)C)CC3)C(=O)N3CCCC(N3)C(=O)OCC(C)(C)C2)C1 .
(A) 5350

* * *

Tested on: 966289-007-R4-J1-PDC complex spheroid viability
Assay: Anticancer human tumor 966289-007-R4-J1-PDC cell line growth inhibition [RAS]; active = viability on the fitted dose curve at most 10% of control; inactive = the rest;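 note: spheroids exposed to agents for one week before readout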
Settings: second compound 0.3 µM; first compound 1 µM
Description: RAS pathway inhibitors in Combinations in Complex Spheroids A high-throughput screen of multi-cell type tumor spheroids was designed to identify active combinations of RAS pathway inhibitors and targeted small molecules. Complex spheroids include a stromal component modeled by human endothelial cells (HUVEC) and fibroblasts modeled by human mesenchymal stem cells (MSCs). […] Compounds. […] If the clinical Cmax for an agent had not been determined, the highest concentration tested was 10 microM. […]
Reply using exactly one outcome from 1 = active, -1 = inactive

(Q) Recorded test outcome, item CC(Nc1ccc2c(c1)OCCn1cc(N3C(=O)OCC3C(F)F)nc1-2)C(N)=O (configuration not stated) + CCn1c(-c2cccnc2C(C)OC)c2c3cc(ccc31)N1CCOC(CC(NC(=O)C(C(C)C)N(C)C(=O)C3(F)CCN(C(=O)C#CC(C)(C)N(C)C)CC3)C(=O)N3CCCC(N3)C(=O)OCC(C)(C)C2)C1
(A) -1

(Q) Recorded test outcome, item CC1(O)CCCC1n1c(=O)c(C(F)F)cc2cnc(NC3CCN(S(C)(=O)=O)CC3)nc21 (configuration not stated) + CCn1c(-c2cc(N3CCN(C)CC3)cnc2C(C)OC)c2c3cc(ccc31)-c1csc(n1)CC(NC(=O)C1CC1C)C(=O)N1CCCC(N1)C(=O)OCC(C)(C)C2
(A) -1

(Q) Recorded test outcome, item C=CC(=O)Nc1cc(Nc2nccc(-c3cn(C)c4ccccc34)n2)c(OC)cc1N(C)CCN(C)C + CCn1c(-c2cccnc2C(C)OC)c2c3cc(ccc31)N1CCOC(CC(NC(=O)C(C(C)C)N(C)C(=O)C3(F)CCN(C(=O)C#CC(C)(C)N(C)C)CC3)C(=O)N3CCCC(N3)C(=O)OCC(C)(C)C2)C1
(A) -1

(Q) Recorded test outcome, item Nc1ccn(C2OC(CO)C(O)C2(F)F)c(=O)n1 (configuration not stated) + CCn1c(-c2cccnc2C(C)OC)c2c3cc(ccc31)N1CCOC(CC(NC(=O)C(C(C)C)N(C)C(=O)C3(F)CCN(C(=O)C#CC(C)(C)N(C)C)CC3)C(=O)N3CCCC(N3)C(=O)OCC(C)(C)C2)C1
(A) 1

(Q) Recorded test outcome, item CC(=O)OC12COC1CC(O)C1(C)C(=O)C(O)C3=C(C)C(OC(=O)C(O)C(NC(=O)OC(C)(C)C)c4ccccc4)CC(O)(C(OC(=O)c4ccccc4)C21)C3(C)C (configuration not stated) + CCn1c(-c2cc(N3CCN(C)CC3)cnc2C(C)OC)c2c3cc(ccc31)-c1csc(n1)CC(NC(=O)C1CC1C)C(=O)N1CCCC(N1)C(=O)OCC(C)(C)C2
(A) -1

(Q) Recorded test outcome, item CC1(O)CCCC1n1c(=O)c(C(F)F)cc2cnc(NC3CCN(S(C)(=O)=O)CC3)nc21 (configuration not stated) + CCn1c(-c2cccnc2C(C)OC)c2c3cc(ccc31)N1CCOC(CC(NC(=O)C(C(C)C)N(C)C(=O)C3(F)CCN(C(=O)C#CC(C)(C)N(C)C)CC3)C(=O)N3CCCC(N3)C(=O)OCC(C)(C)C2)C1
(A) -1

(Q) Recorded test outcome, item CC(Nc1ccc2c(c1)OCCn1cc(N3C(=O)OCC3C(F)F)nc1-2)C(N)=O (configuration not stated) + CCn1c(-c2cc(N3CCN(C)CC3)cnc2C(C)OC)c2c3cc(ccc31)-c1csc(n1)CC(NC(=O)C1CC1C)C(=O)N1CCCC(N1)C(=O)OCC(C)(C)C2
(A) -1

* * *

Tested on: 966289-007-R4-J1-PDC complex spheroid viability
Assay: Anticancer human tumor 966289-007-R4-J1-PDC cell line growth inhibition [RAS];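 note: spheroids exposed to agents for one week before readout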
Settings: curve of first compound; second compound 0.3 µM
pIC50: −log10 of the molar value.
propertyLabel: pIC50

(Q) I would be grateful if you could share the reported pIC50 for C[C@@H](NC(=O)c1ncnc(N)c1Cl)c1ncc(C(=O)Nc2cc(C(F)(F)F)c(Cl)cn2)s1 + CCn1c(-c2cc(N3CCN(C)CC3)cnc2C(C)OC)c2c3cc(ccc31)-c1csc(n1)CC(NC(=O)C1CC1C)C(=O)N1CCCC(N1)C(=O)OCC(C)(C)C2 .
(A) < 5.00

(Q) I would be grateful if you could share the reported pIC50 for Cc1nc(N2CCC3(CC2)COC(C)C3N)c(CO)nc1Sc1ccnc(N)c1Cl (centres undefined) + CCn1c(-c2cc(N3CCN(C)CC3)cnc2C(C)OC)c2c3cc(ccc31)-c1csc(n1)CC(NC(=O)C1CC1C)C(=O)N1CCCC(N1)C(=O)OCC(C)(C)C2 .
(A) < 5.00

(Q) I would be grateful if you could share the reported pIC50 for C=CC(=O)Nc1cc(Nc2nccc(-c3cn(C)c4ccccc34)n2)c(OC)cc1N(C)CCN(C)C + CCn1c(-c2cc(N3CCN(C)CC3)cnc2C(C)OC)c2c3cc(ccc31)-c1csc(n1)CC(NC(=O)C1CC1C)C(=O)N1CCCC(N1)C(=O)OCC(C)(C)C2 .
(A) < 6.00

(Q) I would be grateful if you could share the reported pIC50 for C=CC(=O)N1CCN(c2nc(OCC3CCCN3C)nc3c(F)c(-c4nc(N)cc(C)c4C(F)(F)F)c(Cl)cc23)C(C)C1 (centres undefined) + CCn1c(-c2cccnc2C(C)OC)c2c3cc(ccc31)N1CCOC(CC(NC(=O)C(C(C)C)N(C)C(=O)C3(F)CCN(C(=O)C#CC(C)(C)N(C)C)CC3)C(=O)N3CCCC(N3)C(=O)OCC(C)(C)C2)C1 .
(A) < 6.00

* * *

System: 966289-007-R4-J1-PDC complex spheroid viability
Experiment: Anticancer human tumor 966289-007-R4-J1-PDC cell line growth inhibition [RAS];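 note: spheroids exposed to agents for one week before readout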;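 for viability, T/C: percent viability relative to DMSO vehicle control wells as 100%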
Settings: second compound 0.3 µM; first compound 0.316 µM; stronger effect = lower value
Mark Y for viability, T/C under 90%, N if at or over.

(Q) Strictly below 90% in viability, T/C? Nc1ccn(C2OC(CO)C(O)C2(F)F)c(=O)n1 (stereo unspecified) + CCn1c(-c2cc(N3CCN(C)CC3)cnc2C(C)OC)c2c3cc(ccc31)-c1csc(n1)CC(NC(=O)C1CC1C)C(=O)N1CCCC(N1)C(=O)OCC(C)(C)C2
(A) Y

(Q) Strictly below 90% in viability, T/C? NC1c2ccccc2OC12CCN(c1cnc3c(N4CCCc5ncccc54)n[nH]c3n1)CC2 (stereo unspecified) + CCn1c(-c2cccnc2C(C)OC)c2c3cc(ccc31)N1CCOC(CC(NC(=O)C(C(C)C)N(C)C(=O)C3(F)CCN(C(=O)C#CC(C)(C)N(C)C)CC3)C(=O)N3CCCC(N3)C(=O)OCC(C)(C)C2)C1
(A) N

(Q) Strictly below 90% in viability, T/C? CC1(O)CCCC1n1c(=O)c(C(F)F)cc2cnc(NC3CCN(S(C)(=O)=O)CC3)nc21 (stereo unspecified) + CCn1c(-c2cc(N3CCN(C)CC3)cnc2C(C)OC)c2c3cc(ccc31)-c1csc(n1)CC(NC(=O)C1CC1C)C(=O)N1CCCC(N1)C(=O)OCC(C)(C)C2
(A) Y

(Q) Strictly below 90% in viability, T/C? O=C(c1ccc(F)c(F)c1Nc1ccc(I)cc1F)N1CC(O)([C@@H]2CCCCN2)C1 + CCn1c(-c2cccnc2C(C)OC)c2c3cc(ccc31)N1CCOC(CC(NC(=O)C(C(C)C)N(C)C(=O)C3(F)CCN(C(=O)C#CC(C)(C)N(C)C)CC3)C(=O)N3CCCC(N3)C(=O)OCC(C)(C)C2)C1
(A) Y

(Q) Strictly below 90% in viability, T/C? CC(Nc1ccc2c(c1)OCCn1cc(N3C(=O)OCC3C(F)F)nc1-2)C(N)=O (stereo unspecified) + CCn1c(-c2cccnc2C(C)OC)c2c3cc(ccc31)N1CCOC(CC(NC(=O)C(C(C)C)N(C)C(=O)C3(F)CCN(C(=O)C#CC(C)(C)N(C)C)CC3)C(=O)N3CCCC(N3)C(=O)OCC(C)(C)C2)C1
(A) N

(Q) Strictly below 90% in viability, T/C? CC(=O)OC12COC1CC(O)C1(C)C(=O)C(O)C3=C(C)C(OC(=O)C(O)C(NC(=O)OC(C)(C)C)c4ccccc4)CC(O)(C(OC(=O)c4ccccc4)C21)C3(C)C (stereo unspecified) + CCn1c(-c2cccnc2C(C)OC)c2c3cc(ccc31)N1CCOC(CC(NC(=O)C(C(C)C)N(C)C(=O)C3(F)CCN(C(=O)C#CC(C)(C)N(C)C)CC3)C(=O)N3CCCC(N3)C(=O)OCC(C)(C)C2)C1
(A) Y

(Q) Strictly below 90% in viability, T/C? O=C(c1ccc(F)c(F)c1Nc1ccc(I)cc1F)N1CC(O)([C@@H]2CCCCN2)C1 + CCn1c(-c2cc(N3CCN(C)CC3)cnc2C(C)OC)c2c3cc(ccc31)-c1csc(n1)CC(NC(=O)C1CC1C)C(=O)N1CCCC(N1)C(=O)OCC(C)(C)C2
(A) Y

(Q) Strictly below 90% in viability, T/C? NC1c2ccccc2OC12CCN(c1cnc3c(N4CCCc5ncccc54)n[nH]c3n1)CC2 (stereo unspecified) + CCn1c(-c2cc(N3CCN(C)CC3)cnc2C(C)OC)c2c3cc(ccc31)-c1csc(n1)CC(NC(=O)C1CC1C)C(=O)N1CCCC(N1)C(=O)OCC(C)(C)C2
(A) N
